# tested_on: P2X2/P2X3 heterotrimeric receptor (Homo sapiens, UniProt P56373+Q9UBL9)
# Sequence (Q9UBL9 whole entry): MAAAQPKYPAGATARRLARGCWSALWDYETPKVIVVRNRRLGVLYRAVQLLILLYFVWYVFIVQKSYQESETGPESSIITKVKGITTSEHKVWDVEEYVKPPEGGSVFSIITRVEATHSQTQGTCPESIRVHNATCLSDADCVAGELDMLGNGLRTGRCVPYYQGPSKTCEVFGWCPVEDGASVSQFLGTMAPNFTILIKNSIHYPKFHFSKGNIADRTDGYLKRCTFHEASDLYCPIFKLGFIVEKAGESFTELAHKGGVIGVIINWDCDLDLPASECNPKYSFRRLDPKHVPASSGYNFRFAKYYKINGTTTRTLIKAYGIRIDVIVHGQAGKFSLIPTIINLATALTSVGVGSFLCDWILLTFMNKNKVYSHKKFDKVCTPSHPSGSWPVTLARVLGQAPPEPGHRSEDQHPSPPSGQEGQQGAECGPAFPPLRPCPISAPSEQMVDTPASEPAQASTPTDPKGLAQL
# Sequence (P56373 whole entry): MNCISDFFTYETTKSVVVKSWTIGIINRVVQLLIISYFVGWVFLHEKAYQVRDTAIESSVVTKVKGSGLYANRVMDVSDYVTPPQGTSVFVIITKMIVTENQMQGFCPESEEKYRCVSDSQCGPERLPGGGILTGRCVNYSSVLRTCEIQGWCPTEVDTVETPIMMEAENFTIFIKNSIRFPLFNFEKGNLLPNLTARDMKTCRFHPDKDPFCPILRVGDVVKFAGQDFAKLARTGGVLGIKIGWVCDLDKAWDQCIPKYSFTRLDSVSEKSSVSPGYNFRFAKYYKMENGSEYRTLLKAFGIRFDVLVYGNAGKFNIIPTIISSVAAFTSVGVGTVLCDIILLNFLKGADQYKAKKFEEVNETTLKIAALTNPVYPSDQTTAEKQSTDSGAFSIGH
# experimental_protocol: Antagonist activity against human P2X2/3 receptor expressed in HEK293/1321N1 cells assessed as inhibition of alpha,beta-meATP/ATP-induced calcium influx by Fluo-4 dye based FLIPR assay
# Format: functional, cell-based
reported_endpoint: IC50

Query :: Look at this compound and give its reported IC50. "COc1ccc([C@H](CC(=O)OC(C)(C)C)Nc2ncnc3c2CN(c2ccc(Cl)cc2C#N)CC3)cn1"
Result :: > 10 µM

====

# tested_on: P2X3 receptor
# experimental_protocol: Antagonist activity against rat or human P2X3 receptor expressed in HEK293/1321N1 cells assessed as inhibition of alpha,beta-meATP/ATP-induced calcium influx by Fluo-4 dye based FLIPR assay
reported_endpoint: pIC50
Quick note: pIC50 means taking -log10 of the concentration in moles per liter.

The following compounds have reported results that may help.
Cc1ccc(N2CCc3ncnc(NCc4ccc5nccnc5c4)c3C2)c(C#N)c1: 7.47
Cc1nc(C(F)(F)F)ccc1CNc1ncnc2c1CN(c1ccc(Cl)cc1C#N)CC2: 6.73
CC(=O)OCC[C@@H](Nc1ncnc2c1CN(c1ccc(C)cc1C#N)CC2)c1ccc(C(F)(F)F)nc1: 6.89
N#Cc1cc(Cl)ccc1N1CCc2ncnc(NCc3ccn4ccnc4c3)c2C1: 6.91

// next item, pIC50 requested
Query :: Tell me the measured pIC50 of "Cc1ccc(N2CCc3ncnc(NCc4ccc5cccnc5c4)c3C2)c(C#N)c1" , please.
Result :: 7.70

====

Entries annotated with measured pIC50
# tested_on: P2X3 receptor
# experimental_protocol: Antagonist activity against rat or human P2X3 receptor expressed in HEK293/1321N1 cells assessed as inhibition of alpha,beta-meATP/ATP-induced calcium influx by Fluo-4 dye based FLIPR assay
# pIC50 = -log10(concentration in molar units)

N#Cc1ccccc1N1CCc2ncnc(NCc3ccc(C(F)(F)F)nc3)c2C1: 7.20
Cc1ccc(N2CCc3ncnc(NCc4ccc5ccccc5n4)c3C2)c(C#N)c1: 6.81

Query :: Field request: pIC50 | item: "Cc1ccc(N2CCc3ncnc(NCc4cccc(C#N)c4)c3C2)c(C#N)c1"
Result :: 6.74

====

# tested_on: P2X3 receptor
# experimental_protocol: Antagonist activity against rat or human P2X3 receptor expressed in HEK293/1321N1 cells assessed as inhibition of alpha,beta-meATP/ATP-induced calcium influx by Fluo-4 dye based FLIPR assay
Catalogue of log10 of IC50 values
Hey, these are logged values: log10 of IC50, nM being the unit before logging.

COc1ccc([C@@H](CCO)Nc2ncnc3c2CN(c2ccc(Cl)cc2C#N)CC3)cn1: 1.52

Query :: Entry "N#Cc1cc(Cl)ccc1N1CCc2ncnc(NCc3ccc(C(F)(F)F)nc3)c2C1" : reported log10 of IC50 = ?
Result :: 1.57

Query :: Consider the compound "Cc1ccc(N2CCc3ncnc(NCc4ccc(C5CC5)cn4)c3C2)c(C#N)c1" and give its measured log10 of IC50.
Result :: 2.37

Query :: I'd like to know its log10 of IC50. The compound in question is "Cc1ccc(N2CCc3ncnc(N[C@@H](CCO)c4ccc(C(F)(F)F)nc4)c3C2)c(C#N)c1"
Result :: 2.91

====

# tested_on: P2X3 receptor
# experimental_protocol: Antagonist activity against rat or human P2X3 receptor expressed in HEK293/1321N1 cells assessed as inhibition of alpha,beta-meATP/ATP-induced calcium influx by Fluo-4 dye based FLIPR assay
This listing pairs compounds with measured pIC50.
Field pIC50 (float): negative decimal logarithm of the concentration in molar.

Query :: Requested field: pIC50. Item: "N#Cc1cc(Cl)ccc1N1CCc2ncnc(NCc3ccc(Cl)c(-n4cnnc4)c3)c2C1"
Result :: 7.39
